- TESTED_SYSTEM: von Hippel-Lindau disease tumor suppressor/SWI/SNF-related matrix-associated actin-dependent regulator of chromatin subfamily A member 2 (Homo sapiens, UniProt P51531+P40337)
- EXPERIMENT_SUMMARY: PROTAC activity at VHL1/SMARCA2 in human genetically modified Hela cells assessed as degradation measured after 24 hrs incubation by Nano-Glo HiBiT Lytic Detection Assay
- Type: cell-based
- Sequence (P51531 whole entry): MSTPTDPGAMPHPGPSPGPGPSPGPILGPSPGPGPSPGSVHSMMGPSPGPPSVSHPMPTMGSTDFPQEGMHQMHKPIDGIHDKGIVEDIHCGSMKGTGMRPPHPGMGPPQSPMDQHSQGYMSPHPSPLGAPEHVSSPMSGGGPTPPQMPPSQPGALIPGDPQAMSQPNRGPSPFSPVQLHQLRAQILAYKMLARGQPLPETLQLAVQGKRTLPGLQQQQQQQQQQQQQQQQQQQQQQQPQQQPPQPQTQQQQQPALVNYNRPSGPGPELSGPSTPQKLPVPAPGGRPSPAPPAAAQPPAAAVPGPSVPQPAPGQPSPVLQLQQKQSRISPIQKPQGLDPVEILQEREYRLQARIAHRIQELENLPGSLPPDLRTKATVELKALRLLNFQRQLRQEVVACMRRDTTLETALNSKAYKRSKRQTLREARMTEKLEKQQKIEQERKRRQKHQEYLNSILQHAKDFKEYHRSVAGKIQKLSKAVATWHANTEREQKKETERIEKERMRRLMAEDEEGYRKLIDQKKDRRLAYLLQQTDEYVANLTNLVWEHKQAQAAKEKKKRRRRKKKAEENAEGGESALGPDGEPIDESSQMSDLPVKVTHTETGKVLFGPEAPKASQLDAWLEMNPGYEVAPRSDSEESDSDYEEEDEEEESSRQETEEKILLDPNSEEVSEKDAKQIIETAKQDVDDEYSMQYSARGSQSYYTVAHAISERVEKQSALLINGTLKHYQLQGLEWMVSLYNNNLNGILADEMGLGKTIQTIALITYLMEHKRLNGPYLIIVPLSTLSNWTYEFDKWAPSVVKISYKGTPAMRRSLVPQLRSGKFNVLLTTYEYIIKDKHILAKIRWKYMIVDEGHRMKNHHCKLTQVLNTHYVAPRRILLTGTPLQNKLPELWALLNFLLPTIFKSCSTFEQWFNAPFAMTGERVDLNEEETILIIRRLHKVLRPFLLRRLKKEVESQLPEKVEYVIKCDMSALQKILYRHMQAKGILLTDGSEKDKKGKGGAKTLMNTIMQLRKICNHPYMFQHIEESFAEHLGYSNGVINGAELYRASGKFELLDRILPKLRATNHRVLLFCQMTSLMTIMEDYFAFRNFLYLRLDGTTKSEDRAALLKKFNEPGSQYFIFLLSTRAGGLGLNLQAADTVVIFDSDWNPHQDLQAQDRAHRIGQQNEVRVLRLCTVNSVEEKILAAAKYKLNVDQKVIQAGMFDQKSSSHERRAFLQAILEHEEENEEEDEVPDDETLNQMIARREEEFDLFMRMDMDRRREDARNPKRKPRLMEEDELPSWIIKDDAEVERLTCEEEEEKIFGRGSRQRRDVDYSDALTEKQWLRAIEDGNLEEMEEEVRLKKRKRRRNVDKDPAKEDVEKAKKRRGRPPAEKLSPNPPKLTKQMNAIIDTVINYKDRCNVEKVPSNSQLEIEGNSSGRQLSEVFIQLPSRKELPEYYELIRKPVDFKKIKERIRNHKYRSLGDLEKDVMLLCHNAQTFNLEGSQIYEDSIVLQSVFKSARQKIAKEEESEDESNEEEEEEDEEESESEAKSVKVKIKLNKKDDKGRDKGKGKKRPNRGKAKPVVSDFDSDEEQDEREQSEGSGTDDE
- Sequence (P40337 whole entry): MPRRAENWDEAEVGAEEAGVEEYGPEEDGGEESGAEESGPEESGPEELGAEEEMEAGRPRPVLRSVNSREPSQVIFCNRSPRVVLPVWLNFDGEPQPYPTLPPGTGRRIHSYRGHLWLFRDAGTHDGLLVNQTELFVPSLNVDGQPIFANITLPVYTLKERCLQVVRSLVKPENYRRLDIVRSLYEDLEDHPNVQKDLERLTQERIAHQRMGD
MEASUREMENT_KIND: DC50

GET /values?readout=DC50&item= "Cc1ncsc1-c1ccc([C@H](CC[C@H](C)CCN2CCC(c3ccc4c(c3)n(C3CCCC3)c3nc(=O)c5c(Br)cccc5n43)CC2)NC(=O)[C@@H]2C[C@@H](O)CN2C(=O)[C@@H](NC(=O)C2(F)CC2)C(C)(C)C)cc1"
2.3 nM

GET /values?readout=DC50&item= "Cc1ncsc1-c1ccc([C@H](C)NC(=O)[C@@H]2C[C@@H](O)CN2C(=O)[C@@H](c2cc(N3CCC(CN4CCC(O[C@H]5C[C@H](Oc6cc(CN7C8CCC7CN(c7cc(-c9ccccc9O)nnc7N)C8)ccn6)C5)CC4)CC3)no2)C(C)C)cc1"
0.1 nM

###

Kindly supply the reported Emax values for the records listed here.
- TESTED_SYSTEM: von Hippel-Lindau disease tumor suppressor/SWI/SNF-related matrix-associated actin-dependent regulator of chromatin subfamily A member 2 (Homo sapiens, UniProt P51531+P40337)
- EXPERIMENT_SUMMARY: PROTAC activity at VHL1/SMARCA2 in human genetically modified Hela cells assessed as maximal degradation measured after 24 hrs incubation by Nano-Glo HiBiT Lytic Detection Assay relative to control
- Assay type: cell-based
- Sequence (P40337 whole entry, looked up): as the sequence (P40337 whole entry) above
- Sequence (P51531 whole entry, looked up): as the sequence (P51531 whole entry) above
Give the value, in units of %, as a plain number.

GET /values?readout=Emax&item= "Cc1ncsc1-c1ccc([C@H](CCCCCN2CCC(c3ccc4c(c3)-n3c(nc(=O)c5c(Cl)cccc53)C43CCCCC3)CC2)NC(=O)[C@@H]2C[C@@H](O)CN2C(=O)[C@@H](NC(=O)C2(F)CC2)C(C)(C)C)cc1"
92

GET /values?readout=Emax&item= "Cc1ncsc1-c1ccc([C@H](C)NC(=O)[C@@H]2C[C@@H](O)CN2C(=O)[C@@H](NC(=O)[C@H]2CC[C@H](CN3CCC(c4ccc5c(c4)-n4c(nc(=O)c6c(Cl)cccc64)C54CCCCC4)CC3)CC2)C(C)(C)C)cc1"
89

GET /values?readout=Emax&item= "Cc1ncsc1-c1ccc([C@H](C)NC(=O)[C@@H]2C[C@@H](O)CN2C(=O)[C@@H](NC(=O)CCCCN2CCC(c3ccc4c(c3)C3(CCCCC3)c3nc(=O)c5c(Cl)cccc5n3-4)CC2)C(C)(C)C)cc1"
88

GET /values?readout=Emax&item= "Cc1ncsc1-c1ccc([C@H](C)NC(=O)[C@@H]2C[C@@H](O)CN2C(=O)[C@@H](NC(=O)CCN2CCC(c3ccc4c(c3)C3(CCCCC3)c3nc(=O)c5c(Cl)cccc5n3-4)CC2)C(C)(C)C)cc1"
93

GET /values?readout=Emax&item= "Cc1ncsc1-c1ccc([C@H](C)NC(=O)[C@@H]2C[C@@H](O)CN2C(=O)[C@@H](NC(=O)CCCCCN2CCC(c3ccc4c(c3)C3(CCCCC3)c3nc(=O)c5c(Cl)cccc5n3-4)CC2)C(C)(C)C)cc1"
94

###

- TESTED_SYSTEM: von Hippel-Lindau disease tumor suppressor/SWI/SNF-related matrix-associated actin-dependent regulator of chromatin subfamily A member 4 (Homo sapiens, UniProt P51532+P40337)
- Sequence (P40337 whole entry, looked up): as the sequence (P40337 whole entry) above
- Sequence (P51532 whole entry, looked up): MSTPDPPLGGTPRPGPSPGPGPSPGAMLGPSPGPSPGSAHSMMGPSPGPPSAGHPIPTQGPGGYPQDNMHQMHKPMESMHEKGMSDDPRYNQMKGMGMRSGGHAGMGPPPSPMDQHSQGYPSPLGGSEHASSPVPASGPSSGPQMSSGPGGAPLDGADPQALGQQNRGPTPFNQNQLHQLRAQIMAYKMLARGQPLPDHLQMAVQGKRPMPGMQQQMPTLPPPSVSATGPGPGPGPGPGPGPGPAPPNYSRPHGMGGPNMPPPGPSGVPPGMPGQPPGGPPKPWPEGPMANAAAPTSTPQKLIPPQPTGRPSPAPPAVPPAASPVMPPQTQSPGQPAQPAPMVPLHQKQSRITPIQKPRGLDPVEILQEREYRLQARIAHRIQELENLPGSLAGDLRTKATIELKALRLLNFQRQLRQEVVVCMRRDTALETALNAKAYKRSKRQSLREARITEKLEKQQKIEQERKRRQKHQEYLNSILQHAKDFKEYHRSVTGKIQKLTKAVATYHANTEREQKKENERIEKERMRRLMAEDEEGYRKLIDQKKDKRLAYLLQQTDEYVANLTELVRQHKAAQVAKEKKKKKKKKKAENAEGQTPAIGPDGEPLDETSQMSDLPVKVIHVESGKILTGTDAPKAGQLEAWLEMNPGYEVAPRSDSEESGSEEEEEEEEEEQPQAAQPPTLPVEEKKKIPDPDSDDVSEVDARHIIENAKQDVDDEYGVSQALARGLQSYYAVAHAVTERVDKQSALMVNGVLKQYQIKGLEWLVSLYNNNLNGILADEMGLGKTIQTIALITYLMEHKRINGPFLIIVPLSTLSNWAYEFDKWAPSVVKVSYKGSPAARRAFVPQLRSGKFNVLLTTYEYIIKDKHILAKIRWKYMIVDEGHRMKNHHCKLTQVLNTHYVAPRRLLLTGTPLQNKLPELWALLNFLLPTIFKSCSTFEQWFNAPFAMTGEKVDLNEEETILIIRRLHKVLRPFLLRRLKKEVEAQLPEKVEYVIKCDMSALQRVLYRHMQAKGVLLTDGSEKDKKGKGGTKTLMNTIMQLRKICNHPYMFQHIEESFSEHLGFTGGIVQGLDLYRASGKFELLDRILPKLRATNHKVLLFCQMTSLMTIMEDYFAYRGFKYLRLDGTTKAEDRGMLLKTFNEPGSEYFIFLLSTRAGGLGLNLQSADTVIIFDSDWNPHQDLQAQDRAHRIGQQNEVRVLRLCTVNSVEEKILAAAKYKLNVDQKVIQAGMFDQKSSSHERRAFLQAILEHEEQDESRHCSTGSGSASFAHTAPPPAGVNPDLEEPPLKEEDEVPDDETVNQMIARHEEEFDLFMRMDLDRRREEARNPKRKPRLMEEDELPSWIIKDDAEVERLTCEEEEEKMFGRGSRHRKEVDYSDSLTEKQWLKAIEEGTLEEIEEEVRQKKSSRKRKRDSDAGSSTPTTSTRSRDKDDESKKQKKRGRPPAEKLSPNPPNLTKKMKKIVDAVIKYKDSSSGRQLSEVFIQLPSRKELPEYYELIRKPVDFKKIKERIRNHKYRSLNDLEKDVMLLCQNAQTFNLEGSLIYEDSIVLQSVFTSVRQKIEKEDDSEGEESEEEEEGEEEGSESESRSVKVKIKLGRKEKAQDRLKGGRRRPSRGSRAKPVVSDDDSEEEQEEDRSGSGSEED
- EXPERIMENT_SUMMARY: PROTAC activity at VHL1/SMARCA4 in human genetically modified Hela cells assessed as maximal degradation measured after 24 hrs incubation by Nano-Glo HiBiT Lytic Detection Assay relative to control
- Type: cell-based
MEASUREMENT_KIND: Emax (%)
Give the value, in units of %, as a plain number.

GET /values?readout=Emax&item= "Cc1ncsc1-c1ccc([C@H](CCCCCN2CCC(c3ccc4c(c3)-n3c(nc(=O)c5c(Cl)cccc53)C43CCCCC3)CC2)NC(=O)[C@@H]2C[C@@H](O)CN2C(=O)[C@@H](NC(=O)C2(F)CC2)C(C)(C)C)cc1"
87

GET /values?readout=Emax&item= "Cc1ncsc1-c1ccc([C@H](CCCCCN2CCC(c3ccc4c(c3)C3(CCCCC3)c3nc(=O)c5c(Cl)cccc5n3-4)CC2)NC(=O)[C@@H]2C[C@@H](O)CN2C(=O)[C@@H](NC(=O)C2(F)CC2)C(C)(C)C)cc1"
96

GET /values?readout=Emax&item= "Cc1ncsc1-c1ccc([C@H](C)NC(=O)[C@@H]2C[C@@H](O)CN2C(=O)[C@@H](NC(=O)[C@H]2CC[C@H](CN3CCC(c4ccc5c(c4)-n4c(nc(=O)c6c(Cl)cccc64)C54CCCCC4)CC3)CC2)C(C)(C)C)cc1"
20

GET /values?readout=Emax&item= "Cc1ncsc1-c1ccc([C@H](C)NC(=O)[C@@H]2C[C@@H](O)CN2C(=O)[C@@H](c2cc(N3CCC(CN4CCC(O[C@H]5C[C@H](Oc6cc(CN7C8CCC7CN(c7cc(-c9ccccc9O)nnc7N)C8)ccn6)C5)CC4)CC3)no2)C(C)C)cc1"
96

GET /values?readout=Emax&item= "Cc1ncsc1-c1ccc([C@H](CC[C@H](C)CCN2CCC(c3ccc4c(c3)n(C3CCCC3)c3nc(=O)c5c(Br)cccc5n43)CC2)NC(=O)[C@@H]2C[C@@H](O)CN2C(=O)[C@@H](NC(=O)C2(F)CC2)C(C)(C)C)cc1"
86

GET /values?readout=Emax&item= "Cc1ncsc1-c1ccc([C@H](C)NC(=O)[C@@H]2C[C@@H](O)CN2C(=O)[C@@H](NC(=O)[C@H]2CC[C@H](CN3CC4(CCC(n5cc(-c6cc(-c7ccccc7O)nnc6N)cn5)CC4)C3)CC2)C(C)(C)C)cc1"
52

GET /values?readout=Emax&item= "Cc1ncsc1-c1ccc([C@H](C)NC(=O)[C@@H]2C[C@@H](O)CN2C(=O)[C@@H](NC(=O)[C@H]2CC[C@H](CN3CCC(c4ccc5c(c4)C4(CCCCC4)c4nc(=O)c6c(Cl)cccc6n4-5)CC3)CC2)C(C)(C)C)cc1"
48

GET /values?readout=Emax&item= "Cc1ncsc1-c1ccc([C@H](C)NC(=O)[C@@H]2C[C@@H](O)CN2C(=O)[C@@H](NC(=O)CCCCCN2CCC(c3ccc4c(c3)C3(CCCCC3)c3nc(=O)c5c(Cl)cccc5n3-4)CC2)C(C)(C)C)cc1"
55

GET /values?readout=Emax&item= "Cc1ncsc1-c1ccc([C@H](C)NC(=O)[C@@H]2C[C@@H](O)CN2C(=O)[C@@H](NC(=O)CCN2CCC(c3ccc4c(c3)C3(CCCCC3)c3nc(=O)c5c(Cl)cccc5n3-4)CC2)C(C)(C)C)cc1"
77

GET /values?readout=Emax&item= "Cc1ncsc1-c1ccc([C@H](CCCCCN2CCC(c3ccc4c(c3)C3(CCCCC3)c3nc(=O)c5c(Br)cccc5n3-4)CC2)NC(=O)[C@@H]2C[C@@H](O)CN2C(=O)[C@@H](NC(=O)C2(F)CC2)C(C)(C)C)cc1"
97

GET /values?readout=Emax&item= "Cc1ncsc1-c1ccc([C@H](C)NC(=O)[C@@H]2C[C@@H](O)CN2C(=O)[C@@H](NC(=O)CN2CCC(c3ccc4c(c3)C3(CCCCC3)c3nc(=O)c5c(Cl)cccc5n3-4)CC2)C(C)(C)C)cc1"
97

GET /values?readout=Emax&item= "Cc1ncsc1-c1ccc([C@H](C)NC(=O)[C@@H]2C[C@@H](O)CN2C(=O)[C@@H](NC(=O)[C@H]2CC[C@H](CN3CCC(c4ccc5c(c4)C4(CCCCC4)c4nc(=O)c6c(Br)cccc6n4-5)CC3)CC2)C(C)(C)C)cc1"
58
